Molecular target: T1, his-tagged B7-H3 (UniProt Q5ZPR3-2 29-245, limits assumed)
T1 construct: also called CD276; not shown: His tag
T1 sequence (looked up): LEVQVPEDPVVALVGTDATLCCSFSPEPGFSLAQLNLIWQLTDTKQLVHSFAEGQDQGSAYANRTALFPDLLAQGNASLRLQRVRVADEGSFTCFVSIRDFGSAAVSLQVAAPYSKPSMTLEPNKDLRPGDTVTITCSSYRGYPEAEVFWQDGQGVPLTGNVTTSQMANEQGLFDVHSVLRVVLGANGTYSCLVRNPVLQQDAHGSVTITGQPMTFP
Assay: SPR, Carterra LSA; binder captured by anti-human Fc, his-tagged B7-H3 injected
Value Kind: pKd
Scale: pKd equals -log10([C]), with [C] in mol/L.

* 40511p1.1.C3 scFv-Fc (scFv, V domains shown) VH: DVQLVESGGGVVRPGGSLRLSCAASGFTFRIYGMTWVRQAPGEGLEWVSTISGSGNSTYYADSVKGRFTISRDNSKNTLYLQMNSLRAEDTAVYYCAKTWNNYRFFDYWGLGTLVTVSS VL: EIVLTQSPGTLSLSPGERATLSCRASQPINSSYLAWYQQKPGQAPRLLIYAASSRATDIPDRFSGSGSGTDFTLTISSLQSEDFAVYYCQQYYDWPQFTFGGGTKVEIK | 7.32
* 40511p1.1.G3 scFv-Fc (scFv, V domains shown, Tested as scFv-Fc supernatant) VH: DVQLVESGGGVVRPGESLTLSCAASGFTINSYAVSWVRQAPGEGLEWVSGISGSGVRYYADSVKGRFTISRDDSNNTLYLQMNSLRAEDTAVYYCARSNKVTWNNFFDYWGLGTLVTVSS VL: EVVLTQSPGTLTLSPGERATLSCRASRSILTSLAWYQQKPGQAPRLLIYNTVTRATGIPARFSGSGSGTEFTLTINSLQSEDFAVYYCQQYYDWPPLTFGGGTKVEIK | 9.12

pKd for 40579p1.D8 scFv-Fc (scFv, V domains shown, Tested as scFv-Fc supernatant) VH: EVQLLESGGGLVQPGGSLRLSCAASGFTFSDYYMSWVRQAPGKGLEWVSSISISYGGTTYYADSVKGRFTISRDNSKNTLYLQMNSLRAEDTAVYYCARDRSPYQCRSMDVWGQGTTVTVSS VL: EIVLTQSPGTLSLSPGERATLSCRASQSIRSDLAWYQQKPGQAPRLLIYNTVTRATGVPDRFSGSGSGTEFTLTISSLQSEDFAVYYCQQYNSWPPLTFGGGTKVEIK is 7.35
